Test system: HEK293T
Assay: median enrichment of reporter reads in eGFP-reduced (low/intermediate) vs eGFP-high sorted cells (eGFP-extension fusion abundance) (ratio); higher = stronger loss of eGFP-fusion protein abundance (more destabilising extension)
readout: median enrichment

# sequence input, readout, test result
records = [
    ("LIIMLKSALTFLR [MCF2L2]", "median enrichment", 15.2),
    ("WGTKPRRIPPQ [CA10]", "median enrichment", 0.682),
    ("RCFRRLFFSSRSCHLIILH [COMMD10]", "median enrichment", 7.76),
    ("SLTVFHKEDV [ATP2A2]", "median enrichment", 0.983),
    ("FLGTHSHAHCRSINSNPHFRPKIMRPHLVSTFPRPCSKPNPFLPSGSQNLLSPTATTVLPDFSHSNHSRPAMGNRPSPSVLVK [RNF39]", "median enrichment", 4.59),
    ("CRALMSPTRKLTPNKRLPFPLGFFVLFLSKRDR [IPO5]", "median enrichment", 4.2),
]

---

Tested on: HEK293T
Assay: median enrichment of reporter reads in eGFP-reduced (low/intermediate) vs eGFP-high sorted cells (eGFP-extension fusion abundance) (ratio); higher = stronger loss of eGFP-fusion protein abundance (more destabilising extension)
readout: median enrichment

# substance, test result
rows = [
    ("SMFESHASLWKQYAM [STAT5A]", 0.883),
    ("AAAAAA [Ala06]", 8.25),
    ("GLKFCKVLRGPEHVSATRGSGQHCVLRLVSYLRLPSICVQRPRLQPSQHSAGSHAPCPHPGQQTPARVCAPSDCTPALITHRH [SLC29A4]", 5.42),
    ("QSSLSR [SCAF8]", 1.11),
    ("YGFVVQD [EPM2AIP1]", 0.381),
    ("LLRDPAPPL [AHSP]", 4.96),
    ("CAGAFVAISL [MSI2]", 8.28),
    ("YSQILALLSG [CHRNA9]", 12.2),
    ("ELPGLGGLSGIAMLVAREKKSTANKTTQTKPSTA [FOXA1]", 1.47),
    ("YNMTYSYSSLLSPLYSFFFNIFMTFKSLLYSLARKCTFFLLV [ADAMTS12]", 4.84),
    ("REVYLKKKSETDTSNPAVTTTPTTYVHMTNNFQVGFS [KCNH1]", 4.02),
    ("WDREDPA [BTNL3]", 0.401),
    ("RLHRNCW [OR2Z1]", 3.02),
    ("QELTQQKRTASIPHAFTHQIILKNSDPQVF [TOR3A]", 13.3),
    ("SMSSDWRIRKIYGPTFDAIF [ZCCHC4]", 8.58),
    ("WCLGSTCLLSPQGLSLASLQWGCCVSVHLRLLCLCLLHHAGVWEEWTDRG [TCL1A]", 4.56),
    ("CVAGVEVLIEYDRRMTITLSAQCG [OR10H2]", 6.41),
    ("SISPSC [OR5AK2]", 0.461),
    ("WGRRCGAVNFRPQRSQSMRGGGGGRGRRAKGGGAGASNPRQ [KISS1]", 15.8),
]

---

System: HEK293T;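 also: lentiviral eGFP-IRES-mCherry reporter pool sorted by FACS 96 h post-transduction, gated on mCherry-high cells, Illumina read counts normalized per million, median across four biological replicates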
Assay: median enrichment of reporter reads in eGFP-reduced (low/intermediate) vs eGFP-high sorted cells (eGFP-extension fusion abundance) (ratio); higher = stronger loss of eGFP-fusion protein abundance (more destabilising extension)

# substance, median enrichment
data = [
    ("QLICYVNLSFAFLFD [DGKB]", 13.9),
    ("KGRINK [NPIPA1]", 0.274),
    ("LAHPKYACHLRPQAGHTGQPACRQDLPASSSQYSLQRLKCEAPAPPSALQPTGPGRTCPLSVSPSRVPRWRPLSTG [PAK6]", 3.88),
    ("SNWGAFSPEQRGPRHAVERLHLPPFPGQQD [COX14]", 0.854),
    ("RYQKKK [STARD6]", 0.951),
    ("SGTWCATGCKLQGIFIGCSCIVLHSSAIYF [PSEN2]", 7.44),
    ("SPWGGGKG [C6orf47]", 1.46),
    ("WPDLSERHGYHRMKVEL [CUTC]", 12),
    ("YPDPHRCCDLFVLSTVE [FGF14]", 9.33),
]
